This collection of values is drawn from the supplement of paper PMC10126150.

Reported switch fluorescence ratio values follow for various sequences
tested on: ATP; test: switch fluorescence ratio, 500 uM ATP over buffer (Cy3 cluster intensity, sum of 5 cycles each) (fold (ratio)); higher = stronger signal-on switching upon ATP binding; sequences stand for … in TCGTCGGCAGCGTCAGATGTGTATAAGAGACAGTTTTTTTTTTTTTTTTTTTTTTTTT…TC; details: aptamer strand: ATP DNA aptamer (quencher-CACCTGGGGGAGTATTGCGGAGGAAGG + anchor), 100 nM annealed; ATP concentration: 500 uM;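 also: ATP exposure 15 min at 22 °C before imaging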

[
  {
    "ITEM SEQUENCE": "CCAGTAGTTA",
    "switch fluorescence ratio": 0.999
  },
  {
    "ITEM SEQUENCE": "GCTGGTATAT",
    "switch fluorescence ratio": 1.01
  },
  {
    "ITEM SEQUENCE": "TTTAATCAAA",
    "switch fluorescence ratio": 0.988
  },
  {
    "ITEM SEQUENCE": "TTTTAACGCT",
    "switch fluorescence ratio": 1.01
  },
  {
    "ITEM SEQUENCE": "GGGTTCCTGG",
    "switch fluorescence ratio": 0.995
  }
]
